molecular target: Human Factor B (human) (UniProt P00751); assay: cell-based or functional assay
Sequence (P00751 26-764 limits assumed): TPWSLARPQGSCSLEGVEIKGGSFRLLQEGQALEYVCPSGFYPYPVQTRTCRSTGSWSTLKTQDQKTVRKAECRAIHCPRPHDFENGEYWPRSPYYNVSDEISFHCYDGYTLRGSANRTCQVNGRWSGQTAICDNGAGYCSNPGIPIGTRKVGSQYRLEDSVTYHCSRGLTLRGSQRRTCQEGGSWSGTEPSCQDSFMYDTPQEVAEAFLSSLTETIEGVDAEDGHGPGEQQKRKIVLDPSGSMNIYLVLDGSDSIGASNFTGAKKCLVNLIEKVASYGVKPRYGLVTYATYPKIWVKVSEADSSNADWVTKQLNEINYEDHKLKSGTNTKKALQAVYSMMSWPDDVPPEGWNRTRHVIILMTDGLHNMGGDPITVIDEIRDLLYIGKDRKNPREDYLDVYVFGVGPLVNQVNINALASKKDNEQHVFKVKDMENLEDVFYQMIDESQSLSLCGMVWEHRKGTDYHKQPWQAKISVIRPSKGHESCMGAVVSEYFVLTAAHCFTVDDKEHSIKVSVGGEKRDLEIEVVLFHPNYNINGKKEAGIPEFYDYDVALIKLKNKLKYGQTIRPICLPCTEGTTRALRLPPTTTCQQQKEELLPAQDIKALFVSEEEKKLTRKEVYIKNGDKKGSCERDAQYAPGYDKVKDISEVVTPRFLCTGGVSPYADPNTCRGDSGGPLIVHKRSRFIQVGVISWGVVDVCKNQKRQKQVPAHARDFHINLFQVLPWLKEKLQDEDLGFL
fB Cleavage EC50 vs 10 µM: at or above is true (1), below is false (0).

chymase C22S/K40M/F41R/L99Q/F173Y/D175R/S218I/A226R (enzyme) IIGGTESKPHSRPYMAYLEIVTSNGPSMRCGGFLIRRNFVLTAAHCAGRSITVTLGAHNITEEEDTWQKLEVIKQFRHPKYNTSTQHHDIMLLKLKEKASLTLAVGTLPFPSQFNFVPPGRMCRVAGWGRTGVLKPGSDTLQEVKLRLMDPQACSHYRRFDHNLQLCVGNPRKTKSAFKGDSGGPLLCAGVAQGIVSYGRIDAKPPRVFTRISHYRPWINQILQAN ... false (0)
chymase C22S/P38Q/K40M/F41R/L99Y/V138I/F173S/D175S/A190S/V213A/S218T/A226R (enzyme) IIGGTESKPHSRPYMAYLEIVTSNGQSMRCGGFLIRRNFVLTAAHCAGRSITVTLGAHNITEEEDTWQKLEVIKQFRHPKYNTSTYHHDIMLLKLKEKASLTLAVGTLPFPSQFNFVPPGRMCRIAGWGRTGVLKPGSDTLQEVKLRLMDPQACSHSRSFDHNLQLCVGNPRKTKSSFKGDSGGPLLCAGVAQGIASYGRTDAKPPRVFTRISHYRPWINQILQAN ... true (1)

Lookup: Say whether chymase C22S/P38Q/K40A/F41R/V138I/F173L/D175R/A190S/V213A/S218L/A226R (enzyme) IIGGTESKPHSRPYMAYLEIVTSNGQSARCGGFLIRRNFVLTAAHCAGRSITVTLGAHNITEEEDTWQKLEVIKQFRHPKYNTSTLHHDIMLLKLKEKASLTLAVGTLPFPSQFNFVPPGRMCRIAGWGRTGVLKPGSDTLQEVKLRLMDPQACSHLRRFDHNLQLCVGNPRKTKSSFKGDSGGPLLCAGVAQGIASYGRLDAKPPRVFTRISHYRPWINQILQAN shows fB Cleavage EC50 of 10 µM or more.
Found: false (0)

Lookup: Reported fB Cleavage EC50 reaches at least 10 µM for chymase C22S/A226R/F228A (enzyme) IIGGTESKPHSRPYMAYLEIVTSNGPSKFCGGFLIRRNFVLTAAHCAGRSITVTLGAHNITEEEDTWQKLEVIKQFRHPKYNTSTLHHDIMLLKLKEKASLTLAVGTLPFPSQFNFVPPGRMCRVAGWGRTGVLKPGSDTLQEVKLRLMDPQACSHFRDFDHNLQLCVGNPRKTKSAFKGDSGGPLLCAGVAQGIVSYGRSDAKPPRVATRISHYRPWINQILQAN ?
Found: false (0)

Lookup: Reported fB Cleavage EC50 reaches at least 10 µM for chymase C22S/K40M/F41V/L99N/G151R/F173S/S218E/A226R (enzyme) IIGGTESKPHSRPYMAYLEIVTSNGPSMVCGGFLIRRNFVLTAAHCAGRSITVTLGAHNITEEEDTWQKLEVIKQFRHPKYNTSTNHHDIMLLKLKEKASLTLAVGTLPFPSQFNFVPPGRMCRVAGWGRTGVLKPRSDTLQEVKLRLMDPQACSHSRDFDHNLQLCVGNPRKTKSAFKGDSGGPLLCAGVAQGIVSYGREDAKPPRVFTRISHYRPWINQILQAN ?
Found: true (1)
